In this section, each of the molecules is paired with its reported Cytotoxicity IC50 CCRF-CEM.
- System: CCRF-CEM
- assayRemarks: Cytotoxic activity against mammalian cells in tissue culture (MTT)
- Assay type: cell-based, human
- cond: CCRF-CEM, 120 h, MTT

[
  {
    "molecule": "CCN(CC)[C@@H](Cc1ccccc1)C(=O)NC1C(O)C(C)OC(O[C@H]2/C=C/C=C/C=C/C=C/CC/C=C/C=C/[C@H](C)[C@@H](O)[C@@H](C)[C@H](C)OC(=O)C[C@H](O)C[C@H](O)C[C@H](O)CC[C@@H](O)[C@H](O)CC3(O)C[C@H](O)[C@@H](C(=O)O)[C@H](C2)O3)C1O (some centres unmarked) [Compound N46]",
    "Cytotoxicity IC50 CCRF-CEM": ">100 µg/mL"
  }
]

Query: Entry CCN(CC)CCNC(=S)NC1C(O)C(C)OC(O[C@H]2/C=C/C=C/C=C/C=C/CC/C=C/C=C/[C@H](C)[C@@H](O)[C@@H](C)[C@H](C)OC(=O)C[C@H](O)C[C@H](O)C[C@H](O)CC[C@@H](O)[C@H](O)CC3(O)C[C@H](O)[C@@H](C(=O)O)[C@H](C2)O3)C1O (some centres unmarked) [Compound N14] : reported Cytotoxicity IC50 CCRF-CEM = ?
Result: >100 µg/mL
